test system: LOX IMVI; experiment: NCI tumour cell line growth inhibition, 48 h
Calls of active or inactive are those of the source. Rule as the data show it: active = GI50 up to about 1.1 µM and inactive = higher.
property-measured: GI50

For the compound shown here, COC(=O)C(/C(=N/NC(N)=O)C(=O)Nc1ccc(C)cc1)c1nc2ccc([N+](=O)[O-])cc2nc1O (centres undefined) , give the reported GI50.
69.3 µM (inactive)

Do the same for `COc1ccc(/C(C)=N/OC(=O)c2c(-c3ccccc3Cl)noc2C)cc1CN1CCOCC1` please
14.9 µM (inactive)

Do the same for `C[C@H](NC1=CC(=O)C(N[C@@H](C)[C@H](O)c2ccccc2)=CC1=O)[C@H](O)c1ccccc1` please
> 100 µM (inactive)

Do the same for O=C(c1ccccc1)C(Nc1ccc2ccccc2c1)c1ccccc1 (centres undefined) please
35.3 µM (inactive)

Do the same for COC(=O)C1Cc2c(n(Cc3ccccc3)c3ccccc23)C(CCC(=O)O)N1C(C)C (centres undefined) please
> 100 µM (inactive)

Do the same for `Cc1ccc2[nH]c3c(C)c4ccncc4c(C)c3c2c1` please
0.871 µM (active)

Do the same for `Cc1ccc(S(=O)(=O)OCCn2cnc3nc(NC(=O)c4ccccc4)[nH]c(=O)c32)cc1` please
> 100 µM (inactive)

Do the same for `CC(=O)c1c(SCCN2CCCC2)n(-c2ccccc2)c(=S)n(-c2ccccc2)c1=O` please
2.49 µM (inactive)

Do the same for `CN[C@@H](C)[C@H](N)c1ccccc1` please
> 100 µM (inactive)

Do the same for CCCCCCCCCCCCCOCCOCCOCCCCC(O)CCCCCCCCCC1=C[C@H](C)OC1=O (some centres undefined) please
4.31 µM (inactive)

Do the same for CC(Oc1ccccc1Cl)C(=O)NN1C(=O)CC(=O)NC1=S (centres undefined) please
61.9 µM (inactive)

Do the same for `CCO/C([O-])=C(/C=O)[n+]1c(C)n(C)c2ccccc21` please
> 100 µM (inactive)

Do the same for `COc1cc(/C=C/c2csnn2)cc(OC)c1OC` please
> 100 µM (inactive)

Do the same for `CCOC(=O)NC(=O)c1cn(CCCCCCCCCCC(=O)N2CCN(CCn3cc(C(=O)NC(=O)OCC)c(=O)[nH]c3=O)CC2)c(=O)[nH]c1=O` please
> 100 µM (inactive)

Do the same for `CCOC(=O)c1c(SCCN2CCCCC2)n(-c2ccccc2)c(=S)n(-c2ccccc2)c1=O` please
12.8 µM (inactive)

Do the same for `C/C=C/C(CC(O)(C(F)(F)F)C(F)(F)F)=N/NC(N)=S` please
> 10 µM (inactive)

Do the same for COC(=O)[C@@]12C(=O)C(C)C(=O)[C@]1(C)C(C)=C[C@H]1[C@]3(C=O)CC[C@H](OC(C)=O)C(C)(C)[C@H]3CC[C@@]12C (some centres undefined) please
70.6 µM (inactive)

Do the same for C=C1C(=O)OC2/C=C(\C)CC/C=C(\C)CC(OC(=O)/C(=C/CO)CO)[C@@H]12 (some centres undefined) please
16 µM (inactive)

Do the same for COC1OC2COC(c3ccccc3)OC2C(O)C1Br (centres undefined) please
> 100 µM (inactive)
